Measured kinase still bound, per cent of control by item
# SYSTEM UNDER TEST: CSNK2A2 (human)
# EXPERIMENT: KINOMEscan competition binding
# CONDITIONS USED: compound 10.0 µM
// return numeric value only (unit: %, not printed)

In the examples that follow, each entry is paired with its recorded kinase still bound, per cent of control.
>>> result("C[C@@H](Oc1cc(-c2cnn(C3CCNCC3)c2)cnc1N)c1c(Cl)ccc(F)c1Cl")
55
>>> result("CNC(=O)c1cc(Oc2ccc(NC(=O)Nc3ccc(Cl)c(C(F)(F)F)c3)cc2)ccn1")
100
>>> result("CNC(=O)c1ccc(Nc2cc(Nc3ccccc3S(=O)(=O)C(C)C)c3cc[nH]c3n2)nc1")
18

Query (compound): "O=C(Nc1cccc(Nc2ncc(Br)c(NCCc3cnc[nH]3)n2)c1)N1CCCC1" ; field requested: kinase still bound, per cent of control
0
